The entries below come with measured normalized growth values attached.
Experiment: chemical genetic growth profiling, strain panel (AID 1159580);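 further: tested at 20 µM; growth read once vehicle control cultures reached saturation at 30 °C; 1 = growth at the plate median or of vehicle wells; lower values mean less growth of the strain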
Conditions: S. cerevisiae deletion strains, growth OD, locus YPL106C, strain sse1, stronger effect = lower value
In all, about 5,500 compounds went through this assay and about 2,000 (36%) were called active. Roughly 18% stayed inconclusive and do not appear here. The list shows a part of the results.

{"compound": "CC(CCC(=O)O)[C@H]1CCC2C3CC[C@@H]4CCCC[C@]4(C)C3CC[C@@]21C (stereo partly drawn)", "normalized growth": 1.03}
{"compound": "Cc1nc2ccccn2c(=O)c1CCN1CCC(C(=O)c2ccc(F)cc2)CC1", "normalized growth": 0.963}
{"compound": "CN(C(=O)CN(CCO)CC(=O)N(C)C(C)(C)Cc1ccccc1)C(C)(C)Cc1ccccc1", "normalized growth": 0.991}
{"compound": "COC(=O)CCC(C)[C@H]1CCC2C3C(C[C@H](O)[C@@]21C)[C@@]1(C)CC[C@@H](O)C[C@H]1C[C@H]3O (stereo partly drawn)", "normalized growth": 1.05}
{"compound": "COc1c2ccccc2nc2occc12", "normalized growth": 0.826}
{"compound": "NC(N)=O", "normalized growth": 0.987}
{"compound": "OC[C@H]1OC([S-])[C@H](O)[C@@H](O)[C@@H]1O.[Au+] (stereo partly drawn)", "normalized growth": 1.01}
{"compound": "O=c1cc(-c2ccc(O)cc2)oc2cc(O)cc(O)c12", "normalized growth": 0.955}
{"compound": "COc1c(Cl)ccc(Cl)c1C(=O)O", "normalized growth": 0.979}
{"compound": "COC(=O)CCC(C)C1CCC2C3CC[C@@H]4C[C@H](O)CC[C@]4(C)C3C[C@H](O)[C@]12C (stereo partly drawn)", "normalized growth": 0.989}
{"compound": "C=C[C@H]1CN2CC[C@H]1C[C@@H]2[C@H](O)c1ccnc2ccccc12", "normalized growth": 0.967}
{"compound": "CC(CCC(=O)O)[C@H]1CCC2C3C[C@H](O)[C@@H]4C[C@H](O)CC[C@]4(C)C3CC[C@@]21C (stereo partly drawn)", "normalized growth": 0.978}
{"compound": "C[C@H](CCC(=O)O)[C@H]1CCC2C3C(CC[C@@]21C)[C@@]1(C)CC[C@@H](O)C[C@H]1C[C@@H]3O (stereo partly drawn)", "normalized growth": 0.993}
{"compound": "O=c1cc(-c2ccccc2)oc2c(O)c(O)ccc12", "normalized growth": 0.88}
{"compound": "NNCCc1ccccc1", "normalized growth": 0.977}
{"compound": "O=c1cc(-c2cc(O)c(O)c(O)c2)oc2cc(O)cc(O)c12", "normalized growth": 0.929}
{"compound": "N[C@@H]1[C@@H](O)[C@H](O)[C@@H](CO)O[C@H]1O", "normalized growth": 1.03}
{"compound": "Cc1cc(=O)oc2c(O)c(O)ccc12", "normalized growth": 0.906}

All values here come from PubChem BioAssay AID1159580.
